target: UniProtKB P08183; experiment: Inhibition of human P-glycoprotein transfected in pig LLC-GA5-COL150 cells assessed as quinidine transport from apical to basolateral side at 30 uM preincubated for 30 mins followed by quinidine addition to apical side measured after 60 mins; format: cell-based; details: LLC-PK1, probe quinidine
Metric: inhibition at 1 h, 30 µM (%)

Some compounds with known inhibition at 1 h, 30 µM results, for comparison:
* Cc1ccc(C(=O)NN(C(=O)c2ccccc2Cl)C(C)(C)C)cc1C | 20.8
* CC(C)(C)N(NC(=O)c1cc(Cl)ccc1Cl)C(=O)c1ccccc1Cl | 44.2
* CC(C)(C)N(NC(=O)c1ccc(C(F)(F)F)cc1)C(=O)c1ccccc1Cl | 16.2
* CC(C)(C)N(NC(=O)c1c(Cl)cccc1Cl)C(=O)c1ccccc1Cl | 5.8
* CC(=O)c1ccc(C(=O)NN(C(=O)c2ccccc2Cl)C(C)(C)C)cc1 | 5.3
* Cc1ccc(C(=O)NN(C(=O)c2ccccc2Cl)C(C)(C)C)cc1 | 7.3

[I] CC(C)(C)N(NC(=O)c1ccccc1C(F)(F)F)C(=O)c1ccccc1Cl
[II] COc1cccc(C(=O)NN(C(=O)c2ccccc2Cl)C(C)(C)C)c1
## Task Lab notebook, comparison: I versus II , higher inhibition at 1 h, 30 µM goes to which? Bench note: the answer is the label of the chosen record.
## Result I

[a] Cc1cc(C)cc(C(=O)N(NC(=O)c2ccc(C(C)C)cc2)C(C)(C)C)c1
[b] CC(C)(C)N(NC(=O)c1ccc(F)cc1)C(=O)c1ccccc1Cl
## Task Hello, I am sorting some records. Could you say if a or b has the smaller inhibition at 1 h, 30 µM value? Bench note: the answer is the label of the chosen record.
## Result b
(b: 4.8%, a: 49%)

---

experiment: Lipophilicity , logP of the compound; assay type: physicochemical; conditions: octanol/water
Metric: logP

Some compounds with known logP results, for comparison:
• Cc1cc(C)cc(C(=O)N(NC(=O)c2ccc(C(C)C)cc2)C(C)(C)C)c1 = 4.91
• CC(C)(C)N(NC(=O)c1cccc(C#N)c1)C(=O)c1ccccc1Cl = 2.48
• CC(C)(C)N(NC(=O)c1cccc(Cl)c1Cl)C(=O)c1ccccc1Cl = 3.75

[a] COc1cccc(C(=O)NN(C(=O)c2ccccc2Cl)C(C)(C)C)c1C
[b] COc1ccccc1C(=O)NN(C(=O)c1ccccc1Cl)C(C)(C)C
## Task Hello, I am sorting some records. Could you say if a or b has the smaller logP value? Bench note: the answer is the label of the chosen record.
## Result b
(b: 2.37, a: 3.46)

[a] CC(C)(C)N(NC(=O)c1ccccc1Br)C(=O)c1ccccc1Cl
[b] CC(C)(C)N(NC(=O)c1ccc(Cl)c(Cl)c1)C(=O)c1ccccc1Cl
[c] CC(C)(C)N(NC(=O)c1ccccc1[N+](=O)[O-])C(=O)c1ccccc1Cl
## Task Reorder: logP, max to min. Answer by listing the labels in the requested order.
## Result b, a, c
(b: 4.25, a: 2.91, c: 1.99)

---

target: ATP-dependent translocase ABCB1 (Homo sapiens); test: Inhibition of human P-glycoprotein transfected in pig LLC-GA5-COL150 cells assessed as quinidine transport from apical to basolateral side preincubated for 30 mins followed by quinidine addition to apical side measured after 60 mins; format: cell-based; design: scale not given here; details: human, llc-ga5-col150, 1 h
Sequence (P08183 whole entry): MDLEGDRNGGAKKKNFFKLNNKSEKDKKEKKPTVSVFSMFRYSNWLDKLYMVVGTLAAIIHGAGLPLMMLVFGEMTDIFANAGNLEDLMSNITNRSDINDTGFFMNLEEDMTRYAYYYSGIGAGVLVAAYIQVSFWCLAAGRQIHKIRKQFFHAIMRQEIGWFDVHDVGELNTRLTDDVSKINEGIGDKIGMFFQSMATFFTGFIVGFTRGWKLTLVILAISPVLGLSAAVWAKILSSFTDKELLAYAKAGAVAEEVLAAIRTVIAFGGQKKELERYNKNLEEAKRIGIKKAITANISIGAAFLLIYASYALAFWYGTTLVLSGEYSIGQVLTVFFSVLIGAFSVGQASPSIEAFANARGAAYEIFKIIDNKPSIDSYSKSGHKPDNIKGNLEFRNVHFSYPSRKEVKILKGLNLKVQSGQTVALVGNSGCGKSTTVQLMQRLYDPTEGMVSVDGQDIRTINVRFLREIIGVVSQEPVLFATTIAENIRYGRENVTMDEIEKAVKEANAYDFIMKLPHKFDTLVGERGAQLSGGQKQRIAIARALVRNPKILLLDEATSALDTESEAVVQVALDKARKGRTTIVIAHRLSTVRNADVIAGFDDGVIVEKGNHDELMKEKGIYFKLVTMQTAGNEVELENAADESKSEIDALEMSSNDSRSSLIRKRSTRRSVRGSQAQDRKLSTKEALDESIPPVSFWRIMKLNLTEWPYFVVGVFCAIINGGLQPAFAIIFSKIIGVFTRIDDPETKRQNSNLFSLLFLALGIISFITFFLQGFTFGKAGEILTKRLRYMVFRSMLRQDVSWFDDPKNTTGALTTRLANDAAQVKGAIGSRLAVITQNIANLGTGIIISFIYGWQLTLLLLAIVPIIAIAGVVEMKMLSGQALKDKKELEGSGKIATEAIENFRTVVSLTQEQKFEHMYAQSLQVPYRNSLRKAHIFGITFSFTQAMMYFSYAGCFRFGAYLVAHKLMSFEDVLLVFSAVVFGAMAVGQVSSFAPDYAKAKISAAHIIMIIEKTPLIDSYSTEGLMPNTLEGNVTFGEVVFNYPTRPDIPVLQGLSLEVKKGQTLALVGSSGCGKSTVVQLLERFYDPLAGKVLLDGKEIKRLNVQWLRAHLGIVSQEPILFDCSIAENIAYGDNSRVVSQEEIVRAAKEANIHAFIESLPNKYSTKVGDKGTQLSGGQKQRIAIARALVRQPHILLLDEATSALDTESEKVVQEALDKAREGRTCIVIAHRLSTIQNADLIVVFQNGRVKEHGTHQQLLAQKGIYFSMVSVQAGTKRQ
Metric: log(activity)

• CC(C)(C)N(NC(=O)c1cccc(Br)c1)C(=O)c1ccccc1Cl = -0.31
• CC(C)(C)N(NC(=O)c1ccccc1C(F)(F)F)C(=O)c1ccccc1Cl = -0.73
• CC(C)(C)N(NC(=O)c1ccccc1F)C(=O)c1ccccc1Cl = -1.21
• CC(C)(C)N(NC(=O)c1ccc(F)cc1)C(=O)c1ccccc1Cl = -1.3
• CC(C)(C)N(NC(=O)c1ccc(C#N)cc1)C(=O)c1ccccc1Cl = -1.29

[P] CC(C)(C)N(NC(=O)c1cccc(C(F)(F)F)c1)C(=O)c1ccccc1Cl
[Q] CC(C)(C)N(NC(=O)c1cccc(C#N)c1)C(=O)c1ccccc1Cl
[R] CC(C)(C)N(NC(=O)c1cc(Cl)ccc1Cl)C(=O)c1ccccc1Cl
[S] CC(C)(C)N(NC(=O)c1ccc(Cl)cc1Cl)C(=O)c1ccccc1Cl
[T] CC(C)(C)N(NC(=O)c1ccccc1-c1ccccc1)C(=O)c1ccccc1Cl
## Task Reorder: log(activity), max to min. Answer by listing the labels in the requested order.
## Result T, R, S, P, Q
